Just for reference, ChEMBL document CHEMBL1201862 is where these values come from.

tested on: NCI/ADR-RES; test: NCI tumour cell line growth inhibition, 48 h
Calls of active or inactive are those of the source. No stated cut-off is given here; in the data, active = GI50 up to about 1.1 µM and inactive = higher.
Outcome (select one): class 1 = active, class 0 = inactive

Call for entry NC(=O)C(=CNC(=S)c1ccncc1)C(N)=O : class 0

Dear all, I need the recorded test outcome for Cc1ccc2c(n1)C(=O)c1cc(C)c(C)cc1C2=O , thank you. class 0

Hi team, can someone confirm the assay call for COC(=O)Cc1cc2c(cc1C(=O)c1ccc(N)cc1)OCO2 ? class 1

Fill in: this test's call for COC(=O)C1=COC(OC2OC(CO)C(O)C(O)C2O)C2C3CN4CCc5c([nH]c6ccccc56)C4(CC12)O3 (stereo not given) is ___ class 0

Now for a further molecule.
Any idea what this test logged for COc1ccc(P2(=S)Oc3ccc(C(c4ccccc4)(c4ccccc4)c4ccccc4)cc3O2)cc1 (stereo not given) ? class 0

----------
Form field: GI50 (one value per entry).
test system: OVCAR-5; experiment: NCI tumour cell line growth inhibition, 48 h
Active and inactive are the calls of the source. Cut-off read from the data, not from the text of the source: active = GI50 up to about 1.1 µM and inactive = higher.

Before answering, review these 5 worked examples.
Report the value of GI50 obtained on OVCAR-5 for COc1cc2c(cc1OC)C(C1CC1)ON(C)CC2 (stereo unspecified) . > 100 µM (inactive)

Lab note: OVCAR-5 assay, enter GI50 for COc1cc(/C=N/N=C2NCCN2)ccc1O here > 100 µM (inactive)

Please tell me the measured GI50 for CC1(C)[C@H]2CC[C@](C)(C2)[C@]1(S)Cc1ccccn1 ; system: OVCAR-5. 88.9 µM (inactive)

Report value: GI50, system: OVCAR-5, compound: CCOP(=O)(OCC)C(C#N)Cc1ccco1 (stereo unspecified) > 10 µM (inactive)

Please respond with reported GI50 (system OVCAR-5) for O=c1c2cc(I)ccc2nc(Sc2ccc([N+](=O)[O-])cc2[N+](=O)[O-])n1Cc1ccccc1 . 9.02 µM (inactive)

Let's switch to this compound now.
Provide GI50, tested on OVCAR-5, for Cc1c(C(=O)CC(=O)C(=O)Nc2ccc(Cl)c(Cl)c2)[n+]([O-])c2ccccc2[n+]1[O-] . 36.4 µM (inactive)

----------
Property: GI50; scope: individual compounds
tested on: SK-MEL-28; test: NCI tumour cell line growth inhibition, 48 h
Activity calls are given as the source filed them. Cut-off read from the data, not from the text of the source: active = GI50 up to about 1.1 µM and inactive = higher.

Use these answered entries as a reference point.
Give the value of GI50 reported for the following: C/C(CC(=O)Nc1cc(C)ccc1C)=N\NC(=O)c1ccncc1 > 100 µM (inactive)

Identify the reported GI50 for the following entry. O=C(O)c1c[nH]c2c(Sc3ccccc3)nccc2c1=O > 100 µM (inactive)

Indicate the recorded GI50 value for this compound: Cc1nc(-n2nc(-c3ccccc3)cc2-c2ccccc2)sc1C(=O)/C=C/c1ccc([N+](=O)[O-])cc1 28.7 µM (inactive)

Specify reported GI50 for the compound shown: O=CN1CCN(C(=O)c2ccc(Cl)c(Cl)c2)C1=S 18.2 µM (inactive)

Check the records and state GI50 for CON(C(=O)OC(C)(C)C)c1ccccc1 > 100 µM (inactive)

Further cases:
Give the value of GI50 reported for the following: CCCCCC(O)(CCCCC)CCCCCCCCC1=C(O)C(=O)c2ccc(=O)[nH]c2C1=O 8.32 µM (inactive)

Return GI50 for the following compound: N#Cc1c(-c2ccc(Cl)c(Cl)c2)c(-c2ccc(Cl)c(Cl)c2)nn(CC(=O)O)c1=O 75.2 µM (inactive)

In one line, give reported GI50 of the entry NC(Cc1ccccc1)c1nn[nH]n1 (stereo not given) . > 100 µM (inactive)

Consider the compound OCCOCCN1CCN(CCCN2c3ccccc3Sc3ccc(C(F)(F)F)cc32)CC1 and give its recorded GI50. 3.27 µM (inactive)

Consider the compound O/N=C1/C(=C/c2ccc(Cl)c(Cl)c2)CCCC1C(NO)c1ccc(Cl)c(Cl)c1 (stereo not given) . State its measured GI50. 17.9 µM (inactive)

Identify the reported GI50 for the following entry. CC(C)(C)OC(=O)NCCCCC(N)NC(=O)c1ccccc1 (stereo not given) > 100 µM (inactive)

Complete the entry with GI50 for C/C=C/C=C\C1OC(O)([C@H](CC)C(=O)NC/C=C/C=C(\C)[C@H](OC)C(C)C2OC(\C=C/C=C/C=C(\C)C(=O)c3c(O)ccn(C)c3=O)[C@H](O)[C@@H]2O)C(O)C(O)C1(C)C (stereo not given in full) > 100 µM (inactive)

Give the reported GI50 for this compound. c1ccc(CNC2CC(NCc3ccccn3)CC(NCc3ccccn3)C2)nc1 (stereo not given) 4.75 µM (inactive)

Assign GI50 to the following record: NNC(=O)C(=O)N/N=C1\CCC(=O)CC1C(=O)CCC(=O)Nc1ccc(Cl)cc1 (stereo not given) > 100 µM (inactive)

Kindly indicate its recorded GI50. Item: COC(C/C(=C/CO[Si](C(C)C)(C(C)C)C(C)C)C(=O)Nc1ccccc1I)OC 59.4 µM (inactive)
